SYSTEM: T1, human GIP receptor (human), P48546
T1 chain: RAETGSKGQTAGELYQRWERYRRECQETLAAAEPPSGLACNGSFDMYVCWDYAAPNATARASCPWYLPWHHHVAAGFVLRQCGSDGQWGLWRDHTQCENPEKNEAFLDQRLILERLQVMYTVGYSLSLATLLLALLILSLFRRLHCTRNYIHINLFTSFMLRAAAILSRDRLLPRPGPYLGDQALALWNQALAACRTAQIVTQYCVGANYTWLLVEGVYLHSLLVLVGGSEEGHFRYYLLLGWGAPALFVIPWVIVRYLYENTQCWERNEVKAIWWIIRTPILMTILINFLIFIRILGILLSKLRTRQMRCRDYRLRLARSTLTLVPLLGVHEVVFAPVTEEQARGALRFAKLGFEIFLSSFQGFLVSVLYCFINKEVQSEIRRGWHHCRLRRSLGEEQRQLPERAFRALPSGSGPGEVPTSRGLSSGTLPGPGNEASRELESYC
PROTOCOL_TEXT: 125I-GIP displacement, 10 nM, HEK-GIPR
READOUT_KIND: % Inh 10 nM
Field: value (include unit after the number)

*Q* Provide only the value of recorded % Inh 10 nM for YAEGTFISDYSIAMDKIHQQDFVNWLLAQKPKKIRYS (modifications not checked) [0601GIP4233]
*A* 89%

*Q* Please report the measured % Inh 10 nM for YAEGTFISDYSIAMDKIHQQDFVNWLLAQKPSKEIIS (modifications not checked) [0601GIP4765]
*A* 67%

# context switch: different binder, same % Inh 10 nM
*Q* Answer with the recorded % Inh 10 nM of HGEGTFISDYSIAMDKIHQQDFVNWLLAQKPKKIRYS (modifications not checked) [0601GIP4839] only.
*A* 23.9%
